target: 15-PGDH in A549 cells (Homo sapiens, UniProt P15428); construct: endogenous in cells; assay: A549 cellular 15-PGDH assay (PGE2 accumulation, HTRF); conditions: interleukin-stimulated, inhibitor 24 hrs, PGE2 by competitive HTRF, read-out: A549 Cell Assay IC50
quantity: IC50 (nM)

Here is how some compounds turned out for IC50.
Problem: Need IC50, item Cn1cc2cc(-c3ccc4nc([C@]5(O)C[C@@H](OC(F)(F)F)C5)sc4n3)cnc2n1 [Compound C105C]
Result: 0.788

Problem: Please do the same for Cn1nnc2cc(-c3ccc4cc([C@]5(O)C[C@@](C)(C#N)C5)sc4n3)cnc21 (single isomer, unassigned) [Compound C104C] as well.
Result: 11.3

P. CO[C@]1(C(F)(F)F)C[C@@](O)(c2cc3ccc(-c4cnc5nn(C)cc5c4)nc3s2)C1 (single isomer, unassigned) [Compound C66C]
Q. O[C@@H](c1cc2ccc(-c3ccc4oncc4c3)nc2s1)C1CCOCC1 (single isomer, unassigned) [Compound B43R]
Problem: Hi team, can someone confirm which has the larger IC50: P or Q ? Thanks. Respond using the label that marks the chosen record.
Result: Q
(Q: 196 nM, P: 0.206 nM)

A. Cn1cc2cc(-c3ccc4cc(C(O)C5CC5)sc4n3)cnc2n1 (stereo not shown)
B. CNc1ncc(-c2ccc3cc(C4(O)CC(F)(F)C4)sc3n2)cn1
Problem: Out of A and B , name the one with the higher IC50. Refer to your chosen entry by its label in the reply.
Result: B
(B: 6.34 nM, A: 1.19 nM)

###

Target: 15-PGDH in A549 cells (Homo sapiens, UniProt P15428)
Construct: endogenous in cells
Sequence (P15428 1-266): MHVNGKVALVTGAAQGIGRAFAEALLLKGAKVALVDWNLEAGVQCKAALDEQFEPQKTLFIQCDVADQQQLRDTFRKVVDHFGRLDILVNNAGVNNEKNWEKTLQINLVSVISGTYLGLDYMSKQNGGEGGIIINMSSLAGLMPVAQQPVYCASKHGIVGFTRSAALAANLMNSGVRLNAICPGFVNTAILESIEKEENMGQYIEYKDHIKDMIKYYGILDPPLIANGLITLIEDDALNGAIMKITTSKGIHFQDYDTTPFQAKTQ
Assay: A549 cellular 15-PGDH assay (PGE2 accumulation, HTRF)
Conditions: interleukin-stimulated, inhibitor 24 hrs, PGE2 by competitive HTRF, read-out: A549 Cell Assay IC50
quantity: IC50 (nM)

Study these solved cases before continuing.
Problem: // query IC50 value for entry OC1(c2cc3ccc(-c4cnc5[nH]cnc5c4)nc3s2)CC(F)(F)C1 [Compound C41]
Result: 2.15

Problem: Field entry: Cn1cc2cc(-c3ncc4cc([C@]5(O)C[C@]6(CC6(F)F)C5)sc4n3)cnc2n1 (single isomer, unassigned) [Compound C114C]
Result: 0.821

Problem: Request: Cc1cn2cc(-c3ccc4cc(C5(O)CC(F)(F)C5)sc4n3)cnc2n1 [Compound C45]
Result: 1.35

A. Cc1cn2ncc(-c3ccc4cc([C@]5(O)C[C@@H](C(F)F)C5)sc4n3)cc2n1 [Compound C92C]
B. Cn1cc2cc(-c3ccc4cc([C@]5(O)C[C@@](C)(C#N)C5)sc4n3)cnc2n1 [Compound C63C]
C. Cn1cc2cc(-c3ccc4cc([C@H](O)CCC(F)(F)F)sc4c3)cnc2n1 (single isomer, unassigned) [Compound B60R]
D. Cn1cc(-c2ncc3cc([C@]4(O)C[C@@H](C(F)(F)F)C4)sc3n2)cn1 [Compound C120C]
Problem: Sort the compounds on IC50; start with the lowest figure. Rank them, then answer with their labels in that order.
Result: B, C, A, D
(B: 0.115 nM, C: 3.38 nM, A: 5.27 nM, D: 66.7 nM)
